# Test system: A549
# assay-summary: Cytotoxicity against human A549 cells by sulforhodamine B assay
# Type: functional, cell-based
# run-parameters: Homo sapiens, A549
pIC50: −log10 of the molar value.
A collection of compounds and their measured pIC50
result-type: pIC50

>>> reported("CCC1=C[C@@H]2CN(CCc3c([nH]c4ccccc34)[C@@](C(=O)OC)(c3cc4c(cc3OC)N(C)[C@H]3[C@@](O)(CNC(=O)c5ccc(OC)cc5)[C@H](OC(C)=O)[C@]5(CC)C=CCN6CC[C@]43[C@@H]65)C2)C1")
7.52
>>> reported("CCC1=C[C@@H]2CN(CCc3c([nH]c4ccccc34)[C@@](C(=O)OC)(c3cc4c(cc3OC)N(C)[C@H]3[C@@](O)(CNC(=O)c5ccncc5)[C@H](OC(C)=O)[C@]5(CC)C=CCN6CC[C@]43[C@@H]65)C2)C1")
7.57
>>> reported("CCC1=C[C@@H]2CN(CCc3c([nH]c4ccccc34)[C@@](C(=O)OC)(c3cc4c(cc3OC)N(C)[C@H]3[C@@](O)(CNC(=O)c5cccc(Cl)c5)[C@H](OC(C)=O)[C@]5(CC)C=CCN6CC[C@]43[C@@H]65)C2)C1")
7.59
>>> reported("CCC1=C[C@@H]2CN(CCc3c([nH]c4ccccc34)[C@@](C(=O)OC)(c3cc4c(cc3OC)N(C)[C@H]3[C@@](O)(CNC(=O)C(C)C)[C@H](OC(C)=O)[C@]5(CC)C=CCN6CC[C@]43[C@@H]65)C2)C1")
7.00
>>> reported("CCC1=C[C@@H]2CN(CCc3c([nH]c4ccccc34)[C@@](C(=O)OC)(c3cc4c(cc3OC)N(C)[C@H]3[C@@](O)(CNC(=O)c5ccccc5)[C@H](OC(C)=O)[C@]5(CC)C=CCN6CC[C@]43[C@@H]65)C2)C1")
7.57
>>> reported("CCC1=C[C@@H]2CN(CCc3c([nH]c4ccccc34)[C@@](C(=O)OC)(c3cc4c(cc3OC)N(C)[C@H]3[C@@](O)(CNC(=O)c5ccccc5Cl)[C@H](OC(C)=O)[C@]5(CC)C=CCN6CC[C@]43[C@@H]65)C2)C1")
7.62
>>> reported("CCC1=C[C@@H]2CN(CCc3c([nH]c4ccccc34)[C@@](C(=O)OC)(c3cc4c(cc3OC)N(C)[C@H]3[C@@](O)(CNC(=O)c5ccccc5OC)[C@H](OC(C)=O)[C@]5(CC)C=CCN6CC[C@]43[C@@H]65)C2)C1")
8.00
>>> reported("CCC1=C[C@@H]2CN(CCc3c([nH]c4ccccc34)[C@@](C(=O)OC)(c3cc4c(cc3OC)N(C)[C@H]3[C@@](O)(CNC(=O)c5ccc([N+](=O)[O-])cc5)[C@H](OC(C)=O)[C@]5(CC)C=CCN6CC[C@]43[C@@H]65)C2)C1")
7.48
>>> reported("CCC1=C[C@@H]2CN(CCc3c([nH]c4ccccc34)[C@@](C(=O)OC)(c3cc4c(cc3OC)N(C)[C@H]3[C@@](O)(CNC(=O)c5ccc6c(c5)OCO6)[C@H](OC(C)=O)[C@]5(CC)C=CCN6CC[C@]43[C@@H]65)C2)C1")
8.10

----------
# Tested on: HeLa
# assay-summary: Cytotoxicity against human HeLa cells by sulforhodamine B assay
# Type: functional, cell-based
pIC50: −log10 of the molar value.
result-type: pIC50

>>> reported("CCC1=C[C@@H]2CN(CCc3c([nH]c4ccccc34)[C@@](C(=O)OC)(c3cc4c(cc3OC)N(C)[C@H]3[C@@](O)(CNC(=O)c5ccccc5)[C@H](OC(C)=O)[C@]5(CC)C=CCN6CC[C@]43[C@@H]65)C2)C1")
7.59
>>> reported("CCC1=C[C@@H]2CN(CCc3c([nH]c4ccccc34)[C@@](C(=O)OC)(c3cc4c(cc3OC)N(C)[C@H]3[C@@](O)(CNC(=O)c5ccc(OC)cc5)[C@H](OC(C)=O)[C@]5(CC)C=CCN6CC[C@]43[C@@H]65)C2)C1")
6.86
>>> reported("CCC1=C[C@@H]2CN(CCc3c([nH]c4ccccc34)[C@@](C(=O)OC)(c3cc4c(cc3OC)N(C)[C@H]3[C@@](O)(CNC(=O)c5ccc([N+](=O)[O-])cc5)[C@H](OC(C)=O)[C@]5(CC)C=CCN6CC[C@]43[C@@H]65)C2)C1")
7.64

----------
# System: HeLa
# assay-summary: Cytotoxicity against human HeLa cells by sulforhodamine B assay
# Format: functional, cell-based
pIC50: −log10 of the molar value.
result-type: pIC50

>>> reported("CCC1=C[C@@H]2CN(CCc3c([nH]c4ccccc34)[C@@](C(=O)OC)(c3cc4c(cc3OC)N(C)[C@H]3[C@@](O)(CNC(=O)c5ccc(Cl)cc5)[C@H](OC(C)=O)[C@]5(CC)C=CCN6CC[C@]43[C@@H]65)C2)C1")
7.33
>>> reported("CCC1=C[C@@H]2CN(CCc3c([nH]c4ccccc34)[C@@](C(=O)OC)(c3cc4c(cc3OC)N(C)[C@H]3[C@@](O)(CNC(=O)C(C)C)[C@H](OC(C)=O)[C@]5(CC)C=CCN6CC[C@]43[C@@H]65)C2)C1")
6.88
>>> reported("CCC1=C[C@@H]2CN(CCc3c([nH]c4ccccc34)[C@@](C(=O)OC)(c3cc4c(cc3OC)N(C)[C@H]3[C@@](O)(CNC(=O)c5ccc6c(c5)OCO6)[C@H](OC(C)=O)[C@]5(CC)C=CCN6CC[C@]43[C@@H]65)C2)C1")
7.48
>>> reported("CCC1=C[C@@H]2CN(CCc3c([nH]c4ccccc34)[C@@](C(=O)OC)(c3cc4c(cc3OC)N(C)[C@H]3[C@@](O)(CNC(=O)Cc5ccccc5)[C@H](OC(C)=O)[C@]5(CC)C=CCN6CC[C@]43[C@@H]65)C2)C1")
7.11

----------
# Tested on: HeLa
# assay-summary: Cytotoxicity against human HeLa cells by sulforhodamine B assay
# Assay type: functional, cell-based
pIC50: −log10 of the molar value.
result-type: pIC50

>>> reported("CCC1=C[C@@H]2CN(CCc3c([nH]c4ccccc34)[C@@](C(=O)OC)(c3cc4c(cc3OC)N(C)[C@H]3[C@@](O)(CNC(=O)c5ccccc5OC)[C@H](OC(C)=O)[C@]5(CC)C=CCN6CC[C@]43[C@@H]65)C2)C1")
7.68
>>> reported("CCC1=C[C@@H]2CN(CCc3c([nH]c4ccccc34)[C@@](C(=O)OC)(c3cc4c(cc3OC)N(C)[C@H]3[C@@](O)(CNC(=O)C(C)(C)C)[C@H](OC(C)=O)[C@]5(CC)C=CCN6CC[C@]43[C@@H]65)C2)C1")
7.21

The reported numbers originate from ChEMBL document CHEMBL1153037.
